species on record: Rattus norvegicus; assay: Open TG-GATES - Regimen: Single; assay type: toxicity, organism-based, Sprague-Dawley; design: regimen Single, gender Male, age 6 weeks; conditions: in vivo, po, 0 mg/kg, 24 h, tissue Plasma, route gavage, dose level Control
Measurement label: CRE (mg/dL)
Give bare numbers, in mg/dL.

# annotated cases, reported CRE shown
Compound	Measurement label	Units of measure	Value observed
C[C@H]1O[C@H](O[C@H]2[C@H](O)[C@@H](O)[C@@H](O[C@H]3[C@H](O)[C@@H](O)C(O)O[C@@H]3CO)O[C@@H]2CO)[C@H](O)[C@@H](O)[C@@H]1N[C@H]1C=C(CO)[C@@H](O)[C@H](O)[C@H]1O (stereo partly drawn) [ACARBOSE]	CRE	mg/dL	0.2
CCOC(=O)C(C)(C)Oc1ccc(Cl)cc1 [CLOFIBRATE]	CRE	mg/dL	0.4

Now consider the entry below.
Tell me its CRE given C[C@H]1C(=O)O[C@@H]2CCN3CC=C(COC(=O)[C@](C)(O)[C@]1(C)O)[C@H]23 [MONOCROTALINE] as the entry.
0.2

----------
species: Rattus norvegicus; assay: Open TG-GATES - Regimen: Daily Repeat; format: toxicity, organism-based, Sprague-Dawley; parameters: regimen Daily Repeat, gender Male, age 6 weeks; conditions: in vivo, po, 0 mg/kg, […], tissue Plasma, route gavage, dose level Control, time 7 day
Measurement label: TC (mg/dL)
Numbers only, in mg/dL.

Study these solved cases before continuing.
>>> print(df.to_string())
                                   molecule  measurement_label  value_observed
0  C=C(C)[C@H]1Cc2c(ccc3c2O[C@@H]2COc4cc(OC)c(OC)cc4[C@@H]2C3=O)O1                 TC            81.2
1     O=[N+]([O-])c1ccc(O)c([N+](=O)[O-])c1                 TC              80
2  O=C1CN(/N=C/c2ccc([N+](=O)[O-])o2)C(=O)N1                 TC            79.4
3  C[C@H]1C(=O)O[C@@H]2CCN3CC=C(COC(=O)[C@](C)(O)[C@]1(C)O)[C@H]23                 TC            79.6
4  Cc1cccc(C)c1OCC(C)N (stereo unspecified)                 TC            80.2

// next item, TC requested
Please supply the value of reported TC for the item `OCCN1CCN(CCCN2c3ccccc3Sc3ccc(C(F)(F)F)cc32)CC1`
79.4

----------
Provide the recorded RBC for the entries that follow.
species on record: Rattus norvegicus; test: Open TG-GATES - Regimen: Single; assay type: toxicity, organism-based, Sprague-Dawley; parameters: regimen Single, gender Male, age 6 weeks; settings: in vivo, po, 0 mg/kg, 9 h, tissue Blood, route gavage, dose level Control
Numbers only, in x10_4/ul.

Known RBC results, listed for orientation:
Molecule	RBC (x10_4/ul)
Cn1cc[nH]c1=S	610
OCCN1CCN(CCCN2c3ccccc3Sc3ccc(C(F)(F)F)cc32)CC1	581.6
C[C@H]1C(=O)O[C@@H]2CCN3CC=C(COC(=O)[C@](C)(O)[C@]1(C)O)[C@H]23	618.6
C[C@H]1O[C@H](O[C@H]2[C@H](O)[C@@H](O)[C@@H](O[C@H]3[C@H](O)[C@@H](O)C(O)O[C@@H]3CO)O[C@@H]2CO)[C@H](O)[C@@H](O)[C@@H]1N[C@H]1C=C(CO)[C@@H](O)[C@H](O)[C@H]1O (stereo partly specified)	629.4
O=[N+]([O-])c1ccc(O)c([N+](=O)[O-])c1	595.4

Quote RBC reported for Cc1cccc(C)c1OCC(C)N (stereo unspecified) please.
625.4
